tgt: HCV genotype 1b (BK) NS3 modified enzyme with a R155K mutation (Hepatitis C virus genotype 1b, UniProt P26663, R1181K)
Construct: HCV genotype 1b (BK) NS3 modified enzyme
test.details: HCV NS3 protease time-resolved fluorescence (TRF) assay, genotype 1b R155K
Format: biochemical
setup.conditions: Ki 1b R155K, second of two values printed in the cell (not explained)
measured.endpoint: Ki

INSERT INTO measurements (compound, measured_endpoint, reported_result) VALUES
  ('C=C[C@@H]1C[C@]1(NC(=O)[C@@H]1C[C@@H]2CN1C(=O)[C@H](C(C)(C)C)NC(=O)O[C@@H]1C[C@H]1CCCCCc1c(nc3ccccc3c1OC1C3COCC1CN(C(=O)OC(C)(C)C)C3)O2)C(=O)NS(=O)(=O)C1(C)CC1 (single isomer, unassigned) [Example 254]', 'Ki', '2.3 nM'),
  ('C=C[C@@H]1C[C@]1(NC(=O)[C@@H]1C[C@@H]2CN1C(=O)[C@H](C1CCCCC1)NC(=O)O[C@@H]1C[C@H]1CCCCCc1c(nc3c(F)cccc3c1OC1CCN(C)CC1)O2)C(=O)NS(=O)(=O)C1(C)CC1 [Example 286]', 'Ki', '0.094 nM');
